outcomeMeasure: melting point (°C)

Some entries whose results are on file:
compound | readoutValue
CCOc1ccc(-c2nonc2NC(=O)c2cccc(CN3CCOCC3)c2)cc1OCC [Compound 29] | 199
CCOc1ccc(-c2nonc2NC(=O)c2ccccc2)cc1OCC [Compound 10] | 199

1 = CCOc1ccc(-c2nonc2NC(=O)c2cccc(C(F)(F)F)c2)cc1OCC [Compound 13]
2 = CCOc1ccc(-c2nonc2NC(=O)c2cccc(F)c2)cc1OCC [Compound 14]
Between 1 and 2 , whose recorded melting point is greater? Field: selected label. Fill in the label of the entry you choose. 2

###

- experimentalProtocol: Parallel artificial membrane permeability assay (PAMPA)
- Format: in vitro ADME
- testConditions: pH 7.4, PAMPA, pH 7.4, 200 µM in PBS, room temperature, read-out: Pe (effective permeability)
- Procedure: The PAMPA was performed using a 96-well precoated Corning Gentest PAMPA plate at a pH of 7.4. The PAMPA plate system consists of a donor plate and an acceptor plate. […] The UV absorbance of compounds in donor wells and acceptor wells were analyzed by a SpectraMax M3 UV plate reader (Molecular Devices). […] The plates were analyzed at a wavelength where the R^2 value of the calibration curve was higher than 0.99 [34]. […]
outcomeMeasure: Papp at 5 h, 200 µM (×10⁻⁶ cm/s)

Some entries whose results are on file:
smilesData | readoutValue
CCOc1ccc(-c2nonc2NC(=O)c2cccc(CN3CCOCC3)c2)cc1OCC | 5.65
CCOc1ccc(-c2nonc2NC(=O)CCN2CCOCC2)cc1OCC | 6.08
CCOc1ccc(-c2nonc2NC(=O)c2cccc(C)c2)cc1OCC | 2.77

a = CCOc1ccc(-c2nonc2NC(=O)CCN2CCCC2)cc1OCC
b = CCOc1ccc(-c2nonc2NC(=O)c2ccc(OC)c(F)c2)cc1OCC
Parameter metric = Papp at 5 h, 200 µM. Return the lower-valued option from a and b . Field: selected label. Fill in the label of the entry you choose. b
(b: 3.9 ×10⁻⁶ cm/s, a: 6.93 ×10⁻⁶ cm/s)
